Assay overview: In vitro metabolism rate determination, human liver microsome (HLM) assay
Type: in vitro ADME
Experimental parameters: human liver microsomes, substrate 1 μM; read-out: HLM (intrinsic clearance)
Protocol: In vitro Metabolism Rate Determination (Human Liver Microsome (HLM); Rat Liver Microsome (RLM) Assay) Many drugs are metabolised by the cytochrome P450 mono-oxygenase system. […] [formula] […] The volume of substrate required in the remaining 1.162.5 ml incubation is calculated as follows: [formula] • N.B. The volume of organic solvent added should not exceed 0.1% of the total incubation volume. […] The microsomal 4-nitroanisole O-demethylase activity is calculated as follows: Calculation of Results […]
Result type: microsomal CLint at 1 μM (µL/min/mg)

Some entries whose results are on file:
[[record]]
compound = "C[C@@H]1CN(C(=O)[C@@H]2CN(c3cccnn3)C[C@H]2c2ccc(Cl)cn2)C[C@H](C)[C@@]1(O)c1ccccn1"
readout_value = 240

[[record]]
compound = "C[C@@H]1CN(C(=O)[C@@H]2CN(c3ccc(Cl)nn3)C[C@H]2c2ccc(F)cn2)C[C@H](C)[C@@]1(O)c1ccccc1"
readout_value = 100


1 = COc1ccc(C2CN(c3ccc(=O)[nH]n3)CC2C(=O)N2CC(C)C(O)(c3ccc(F)cc3)C(C)C2)nc1 (stereo not shown)
2 = C[C@@H]1CN(C(=O)[C@@H]2CN(c3ccc(Cl)nn3)C[C@H]2c2ccc(Cl)cn2)C[C@H](C)[C@@]1(O)c1ccccn1
Kindly identify the item with the lower microsomal CLint at 1 μM figure among these two: 1 and 2 Give the label of your selection.
1

a = COc1ccc([C@@H]2CN(c3ccc(C#N)nn3)C[C@H]2C(=O)N2C[C@@H](C)[C@](O)(c3ccc(F)cc3)[C@@H](C)C2)nc1
b = CC1CN(C(=O)C2CN(c3ccc(C#N)nn3)CC2c2ccc(Cl)cn2)CC(C)C1(O)c1ccccn1 (stereo not shown)
Kindly identify the item with the lower microsomal CLint at 1 μM figure among these two: a and b Give the label of your selection.
a

The origin of these recorded values is patent US8138188B2.
